- experimental-target: T1, Human soluble Her-2 (Bender Med Systems, Austria) (human, UniProt P04626 23-652, biotinylated (sulfo-LC-LC-biotin) when used for yeast FACS staining; unlabelled in ELISA and SPR)
- T1 construct: extracellular domain; given only as 'human soluble Her-2'; also called recombinant antigen Her2 (Bendermedsystems); Her2-biotin
- procedure-text: ELISA, human soluble Her-2 coated at 2 ug/ml, Fcab titrated, anti-Fc CH2-HRP detection
measurement-label: pEC50
Give bare numbers, as −log10 of the molar value.

>>> result_number("y-Her.C2.P4.2-3 (designed binder) EPKSCDKTHTCPPCPAPELLGGPSVFLFPPKPKDTLMISRTPEVTCVVVDVSHEDPEVKFNWYVDGVEVHNAKTKPREEQYNSTYRVVSVLTVLHQDWLNGKEYKCKVSNKALPAPIEKTISKAKGQPREPQVYTLPPSRDEYASNTVSLTCLVKGFYPSDIAVEWESNGQPENNYKTTPPVLDSDGSFFLYSKLTVARYSPRMLRWAHGNVFSCSVMHEALHNHYTQKSLSLSPGK")
6.33

Let us examine a further case.
Input EF3-17 (designed binder) EPKSCDKTHTCPPCPAPELLGGPSVFLFPPKPKDTLMISRTPEVTCVVVDVSHEDPEVKFNWYVDGVEVHNAKTKPREEQYNSTYRVVSVLTVLHQDWLNGKEYKCKVSNKALPAPIEKTISKAKGQPREPQVYTLPPSRDEYLHGDVSLTCLVKGFYPSDIAVEWESNGQPENNYKTTPPVLDSDGSFFLYSKLTVARHSRTMWRWGHGNVFSCSVMHEALHNHYTQKSLSLSPGK . Output pEC50: 8.33
